Reference source: paper PMC5607274

# STUDY_SYSTEM: human recombinant Yes [a.a. 2–543 (end)] (Homo sapiens)
# Construct: human recombinant Yes [a.a; 2–543 (end)]; purchased BPS Bioscience 40488
# Sequence (P07947 2-543): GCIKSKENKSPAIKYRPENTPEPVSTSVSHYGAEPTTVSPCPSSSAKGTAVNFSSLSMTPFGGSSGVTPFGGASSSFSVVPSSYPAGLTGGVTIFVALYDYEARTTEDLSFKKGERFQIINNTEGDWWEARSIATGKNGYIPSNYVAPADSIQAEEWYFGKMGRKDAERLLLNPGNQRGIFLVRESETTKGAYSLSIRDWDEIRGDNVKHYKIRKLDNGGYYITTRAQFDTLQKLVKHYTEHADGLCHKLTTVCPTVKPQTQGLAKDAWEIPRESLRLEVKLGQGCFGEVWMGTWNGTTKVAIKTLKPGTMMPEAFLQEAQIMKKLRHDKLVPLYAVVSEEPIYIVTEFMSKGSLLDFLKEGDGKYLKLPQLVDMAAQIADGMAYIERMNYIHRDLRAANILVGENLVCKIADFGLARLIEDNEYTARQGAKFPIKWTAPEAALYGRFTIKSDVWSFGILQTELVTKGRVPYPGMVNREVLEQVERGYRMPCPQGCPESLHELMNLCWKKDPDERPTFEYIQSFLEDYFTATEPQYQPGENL
# TEST: ADP-Glo kinase assay, inhibition rates of Yes phosphorylation activity (first and second screening)
# Assay type: biochemical
# MEASUREMENT_CONDITIONS: first screening; mean of n = 4 wells; 10 μmol L−1 compound
ENDPOINT: First screening IR (inhibition rate) (%)

>>> recorded_result("COc1ccc(-c2n[nH]c(CNC(=O)C3=NN(C)C(=O)CC3)n2)cc1")
4
>>> recorded_result("COCC(=O)N1CCCCCC1C1CCN(c2ncc(C(N)=O)cc2Cl)CC1 (centres unmarked)")
2
>>> recorded_result("CCS(=O)(=O)Cc1cccc(S(=O)(=O)N(C)C)c1")
-10
>>> recorded_result("Cc1ccc(-c2cc(-c3cccc(C)c3)nc3ccccc23)cc1")
9
>>> recorded_result("CC(Sc1nnc(-c2c[nH]c3ccccc23)n1CC1CCCO1)C(=O)Nc1ccc(N(C)C)cc1 (centres unmarked)")
0
>>> recorded_result("Cc1cc(SC(C)C(=O)Nc2ccc3[nH]c(=O)[nH]c3c2)nc2ccccc12 (centres unmarked)")
-20
>>> recorded_result("CC(C)(C)OC(=O)N1CCc2nc(NC(=O)c3csc(-c4ccco4)n3)sc2C1")
-4
>>> recorded_result("CCN(CC)CCNC(=O)c1ccc(NC(=O)C2CCN(c3ncnc4sc(C)c(C)c34)CC2)cc1")
-1
